Measured ΔTm at 10 µM accompanies every entry in the list below.
biological target: BRAFA (Homo sapiens); construct: purchased in-house (home-made panel, SGC-style construct names); assay: DSF thermal shift, kinase panel; assay type: binding; details: 10 μM compound
Sequence (P15056 whole entry): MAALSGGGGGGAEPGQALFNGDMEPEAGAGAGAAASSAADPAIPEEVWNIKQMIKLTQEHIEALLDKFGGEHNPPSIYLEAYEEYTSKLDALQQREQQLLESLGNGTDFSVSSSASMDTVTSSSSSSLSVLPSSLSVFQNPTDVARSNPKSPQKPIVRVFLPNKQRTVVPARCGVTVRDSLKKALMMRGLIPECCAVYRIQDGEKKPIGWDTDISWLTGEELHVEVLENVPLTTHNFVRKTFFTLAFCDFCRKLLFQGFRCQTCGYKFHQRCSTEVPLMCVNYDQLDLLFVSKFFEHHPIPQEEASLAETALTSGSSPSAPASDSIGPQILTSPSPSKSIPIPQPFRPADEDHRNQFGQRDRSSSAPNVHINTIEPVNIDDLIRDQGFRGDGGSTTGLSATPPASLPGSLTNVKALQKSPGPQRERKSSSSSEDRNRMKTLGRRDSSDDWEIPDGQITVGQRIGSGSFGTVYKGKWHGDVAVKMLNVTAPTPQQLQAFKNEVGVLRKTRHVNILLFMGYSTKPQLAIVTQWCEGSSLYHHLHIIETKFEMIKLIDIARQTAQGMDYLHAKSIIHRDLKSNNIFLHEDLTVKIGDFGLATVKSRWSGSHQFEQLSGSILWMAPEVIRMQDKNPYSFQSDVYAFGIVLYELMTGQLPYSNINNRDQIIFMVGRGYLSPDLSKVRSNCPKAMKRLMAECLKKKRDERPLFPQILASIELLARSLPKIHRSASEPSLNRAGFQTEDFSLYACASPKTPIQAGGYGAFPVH
attribute_measured: ΔTm at 10 µM (°C)

Cc1ccc(Nc2nsnc(Nc3ccc(C(N)=O)cc3)c2=O)cc1O ... 0.2
Cc1ccc(Nc2nsnc(Nc3cccc(C(N)=O)c3)c2=O)cc1O ... -0.1
Cc1ccc(Nc2nsnc(Nc3ccc4c(c3)CS(=O)(=O)C4)c2=O)cc1O ... 0.7
CNC(=O)c1ccccc1Nc1nsnc(Nc2ccc(N3CCOCC3)cc2)c1=O ... 0.4
CNC(=O)c1ccccc1Nc1nsnc(Nc2cccc(CS(C)(=O)=O)c2)c1=O ... 0.1
